Reference source: PubChem BioAssay (NCI)

Items are presented alongside their recorded TGI.
- Test system: OVCAR-5 ovarian
- TEST DESCRIPTION: NCI tumour cell line growth inhibition, 48 h
Numeric only. Scale: µM

| MOLECULAR STRING | ASSAYED TARGET | TGI (µM) |
| --- | --- | --- |
| COc1ccc2[nH]c3c(C)c4ccncc4c(C)c3c2c1 | OVCAR-5 ovarian | 4.07 |

Query (molecule): `C[C@H](C(=O)C12CC3CC(CC(C3)C1)C2)[C@H](O)c1ccccc1` ; field requested: TGI
56.2

Query (molecule): `COc1cc(C(c2c(O)c3ccccc3oc2=O)c2c(O)c3ccccc3oc2=O)ccc1O` ; field requested: TGI
41.3

Query (molecule): `O=C1C(=O)c2cc([N+](=O)[O-])ccc2-c2ccc([N+](=O)[O-])cc21` ; field requested: TGI
6.4
